Tested on: Tau plaque particles
Assay: Mass spectroscopy proteomics, semi-quantitative binding affinity of serum proteins (plaqueproteome, Table 2)
Set-up: species or system human
Conditions: higher number = stronger affinity
reportedMetric: Semi-quantitative analysis of proteins binding to different plaque particles: Tau

The molecule listed as Selenoprotein P (protein) ESQDQSSLCKQPPAWSIRDQDPMLNSNGSVTVVALLQASUYLCILQASKLEDLRVKLKKEGYSNISYIVVNHQGISSRLKYTHLKNKVSEHIPVYQQEENQTDVWTLLNGSKDDFLIYDRCGRLVYHLGLPFSFLTFPYVEEAIKIAYCEKKCGNCSLTTLKDEDFCKRVSLATVDKTVETPSPHYHHEHHHNHGHQHLGSSELSENQQPGAPNAPTHPAPPGLHHHHKHKGQHRQGHPENRDMPASEDLQDLQKKLCRKRCINQLLCKLPTDSELAPRSUCCHCRHLIFEKTGSAITUQCKENLPSLCSUQGLRAEENITESCQURLPPAAUQISQQLIPTEASASURUKNQAKKUEUPSN shows Semi-quantitative analysis of proteins binding to different plaque particles: Tau equal to 0
